Measured inhibition values are reported for all entries that follow.
Test system: Platelet-derived growth factor receptor alpha (Homo sapiens), P16234 [T674I]
Sequence (P16234 whole entry T674I): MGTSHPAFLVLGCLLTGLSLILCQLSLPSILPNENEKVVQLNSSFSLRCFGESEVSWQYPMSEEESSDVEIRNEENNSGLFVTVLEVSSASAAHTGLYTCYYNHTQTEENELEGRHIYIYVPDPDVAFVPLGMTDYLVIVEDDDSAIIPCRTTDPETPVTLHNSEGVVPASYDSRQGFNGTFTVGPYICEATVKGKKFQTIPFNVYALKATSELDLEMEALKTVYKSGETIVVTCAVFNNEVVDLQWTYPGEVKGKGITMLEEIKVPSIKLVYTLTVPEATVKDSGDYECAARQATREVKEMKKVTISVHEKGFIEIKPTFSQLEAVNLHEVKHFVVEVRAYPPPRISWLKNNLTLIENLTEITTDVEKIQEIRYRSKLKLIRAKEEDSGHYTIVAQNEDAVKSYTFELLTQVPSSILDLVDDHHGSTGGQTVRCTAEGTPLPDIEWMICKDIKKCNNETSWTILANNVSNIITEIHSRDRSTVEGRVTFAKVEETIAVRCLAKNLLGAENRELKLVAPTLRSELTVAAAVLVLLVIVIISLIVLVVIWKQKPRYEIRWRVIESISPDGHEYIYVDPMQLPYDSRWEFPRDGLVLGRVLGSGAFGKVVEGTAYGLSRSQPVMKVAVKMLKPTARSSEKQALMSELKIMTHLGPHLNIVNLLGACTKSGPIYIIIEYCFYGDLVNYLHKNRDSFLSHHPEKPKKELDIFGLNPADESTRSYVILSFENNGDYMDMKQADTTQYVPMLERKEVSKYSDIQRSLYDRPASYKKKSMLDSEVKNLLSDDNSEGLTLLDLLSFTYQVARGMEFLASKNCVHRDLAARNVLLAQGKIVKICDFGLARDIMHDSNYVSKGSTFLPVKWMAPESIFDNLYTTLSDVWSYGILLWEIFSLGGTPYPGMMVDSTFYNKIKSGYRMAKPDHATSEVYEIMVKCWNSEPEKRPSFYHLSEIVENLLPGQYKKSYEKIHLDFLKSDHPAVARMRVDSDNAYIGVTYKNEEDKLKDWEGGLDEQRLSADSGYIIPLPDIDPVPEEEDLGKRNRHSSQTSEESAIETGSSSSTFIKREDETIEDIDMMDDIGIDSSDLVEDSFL
Study Conditions: at 1 µM
Respond with a number, then the unit of measure.

>  <Smiles Text>
COC(=O)Nc1nc2cc(Oc3ccc(NC(=O)Nc4ccccc4)cc3)ccc2[nH]1

>  <Test System>
Platelet-derived growth factor receptor alpha (Homo sapiens), P16234 [T674I]

>  <inhibition>
93.9%

$$$$
>  <Smiles Text>
CS(=O)(=O)CCNCc1ccc(-c2ccc3ncnc(Nc4ccc(OCc5cccc(C(F)(F)F)c5)cc4)c3c2)o1

>  <Test System>
Platelet-derived growth factor receptor alpha (Homo sapiens), P16234 [T674I]

>  <inhibition>
12.3%

$$$$

We now examine a further compound.
Quick note, inhibition for CCN1CCC(C(=O)Nc2n[nH]c3nnc(-c4cccc(F)c4F)cc23)CC1 landed at 7.18%
